test system: LXRb homodimer (NR concentration 270 nM); assay: PBM binding z-score (relative to random genomic background probes); higher = stronger binding; sequences stand for … in GC…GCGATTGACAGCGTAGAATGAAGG
// PBM binding z-score lookup, one value per entry

Please review the entries below; each comes with its answer.
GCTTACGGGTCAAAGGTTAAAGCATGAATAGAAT 0.412
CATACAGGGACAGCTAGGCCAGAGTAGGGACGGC -0.351
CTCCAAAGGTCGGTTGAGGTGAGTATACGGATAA -0.00126
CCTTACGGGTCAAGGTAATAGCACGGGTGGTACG -0.283
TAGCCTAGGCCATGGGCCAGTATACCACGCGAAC -1.23

Ask: What does the record list as PBM binding z-score for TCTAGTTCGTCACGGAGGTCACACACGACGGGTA ?
Result: 1.17

Ask: Same question for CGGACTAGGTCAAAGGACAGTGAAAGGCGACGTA please.
Result: -0.542

Ask: And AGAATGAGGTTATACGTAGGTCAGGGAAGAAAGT ?
Result: 0.0984

Ask: Same question, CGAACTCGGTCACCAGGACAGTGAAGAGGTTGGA this time
Result: -1.17

Ask: Now the sequence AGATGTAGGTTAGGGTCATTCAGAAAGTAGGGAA
Result: 2.05

Ask: Further, for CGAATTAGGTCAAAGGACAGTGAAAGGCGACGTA ?
Result: 0.106

Ask: And the next one, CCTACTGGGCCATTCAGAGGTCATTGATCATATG ?
Result: 0.365
